# assayed-target: human norepinephrine transporter (hNET) (Homo sapiens)
# Construct: Clone: HEK-hNET #2)
# Sequence (P23975 whole entry): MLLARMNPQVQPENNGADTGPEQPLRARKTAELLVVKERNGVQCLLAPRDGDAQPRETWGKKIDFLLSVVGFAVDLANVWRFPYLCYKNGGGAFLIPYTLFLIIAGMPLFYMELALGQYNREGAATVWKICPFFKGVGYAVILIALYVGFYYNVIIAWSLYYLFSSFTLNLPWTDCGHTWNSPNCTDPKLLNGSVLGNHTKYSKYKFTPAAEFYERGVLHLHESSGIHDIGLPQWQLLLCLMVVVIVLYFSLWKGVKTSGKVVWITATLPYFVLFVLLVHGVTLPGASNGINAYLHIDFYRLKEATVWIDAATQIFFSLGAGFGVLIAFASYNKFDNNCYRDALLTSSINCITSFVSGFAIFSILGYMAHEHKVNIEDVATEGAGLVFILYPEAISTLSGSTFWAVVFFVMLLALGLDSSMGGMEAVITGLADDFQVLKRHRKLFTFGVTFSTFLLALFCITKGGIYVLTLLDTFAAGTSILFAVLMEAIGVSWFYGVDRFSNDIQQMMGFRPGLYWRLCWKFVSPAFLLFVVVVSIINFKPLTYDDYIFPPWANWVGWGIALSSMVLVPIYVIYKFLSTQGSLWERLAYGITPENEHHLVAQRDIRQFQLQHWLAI
# measurement-notes: Screening for compounds active at human norepinephrine transporter (hNET), scintillation proximity assay (SPA)
# condition-description: competition with [3H]-Nisoxetine; membranes of HEK-293 cells expressing recombinant hNET

smiles-structure	assayed-target	Ki
COc1cccc(CN(c2ccc3[nH]ncc3c2)C2CCNCC2)c1	human norepinephrine transporter (hNET) (Homo sapiens)	~1.58 nM

Cited source for all entries: patent US8093285B2
